- System: CYP3A4, CYP2C9 and CYP2D6 (lowest IC50 of the isoforms measured)
- EXPERIMENT SUMMARY: Cytochrome P450 inhibition in human liver microsomes
- Assay type: in vitro ADME
- SETUP CONDITIONS: lowest of isoforms 3A4, 2C9 and 2D6, 0-100 μM test compound, read-out: CYP450 lowest IC50 of the isoenzymes measured
pIC50: −log10 of the molar value.
QUANTITY: pIC50

Incoming: Please look up its pIC50: O=C1COc2ccc(N3C[C@H](CCCN[C@@H]4Cn5c(=O)ccc6cccc4c65)OC3=O)nc2N1 [Example 1]
Outgoing: < 4.30

Reference source for all entries: patent US10633395B2
